# Test system: Helicoverpa armigera
# Setup Conditions: Helicoverpa armigera 3rd instar on chickpea plants; dose 1 ml/gm/lit. spray; 72 hrs after application
Listed here: items and their measured % Mortality at 72 Hrs..

Compound	% Mortality at 72 Hrs. / %
C/C=C\c1cc(OC)c(OC)cc1OC [β-Asarone]	52.50
CCCCC[C@H](O)CC(=O)CCc1ccc(O)c(OC)c1 [Gingerol]	50.00
O=C(/C=C/C=C/c1ccc2c(c1)OCO2)N1CCCCC1 [Piperine]	67.50
C=CCc1ccc(OC)cc1 [Methyl chavicol]	67.50
Cc1ccc(C(C)C)c(O)c1 [Thymol]	62.50
CCCCCCCCCC(C)=O [Embodiment 2-undecanone, 2-undecanone]	52.50
CC12CCC(CC1)C(C)(C)O2 [1,8 cineole]	52.50
Cc1ccc(C(C)C)cc1O [Carvacrol]	52.50
CC1=CC(=O)C(C(C)C)=CC1=O [Thymoquinone]	45.00
CC1CCC(C(C)C)C(O)C1 (stereo not shown) [Menthol]	55.00
CCCCCCCCCCCCCCCC(=O)O [Palmitic acid]	40.00
C=C1C2CCC(C2)C1(C)C (stereo not shown) [Camphene, camphene]	60.00
C=C(C)[C@H]1CC=C(C)CC1 [D-limonene]	32.50
O=c1oc2c(O)c(O)cc3c(=O)oc4c(O)c(O)cc1c4c23 [Ellagic acid]	70.00
CC1=CCC2CC1C2(C)C (stereo not drawn) [Alpha-pinene]	67.50
CC12CCC(CC1=O)C2(C)C (stereo not shown) [Camphor]	55.00

###

# Test system: tomato seedlings
# Procedure Summary: Response of tomato plants, greenhouse growth (Ex. 30)
# Format: in vivo
# Setup Conditions: tomato seedlings; dose 1 ml/gm/lit; 10th day after application

Molecule	CCI 10th Day
O=C(/C=C/C=C/c1ccc2c(c1)OCO2)N1CCCCC1	14.63
CCCCCCCCCCCCCCCC(=O)O	14.89
O=c1oc2c(O)c(O)cc3c(=O)oc4c(O)c(O)cc1c4c23	14.56
CC(C)c1ccc(C=O)cc1	14.65
CC1CCC(C(C)C)C(O)C1 (stereo not shown)	14.35
C/C=C\c1cc(OC)c(OC)cc1OC	14.56
CC12CCC(CC1)C(C)(C)O2	14.55
CC1=CCC2CC1C2(C)C (stereo not shown)	14.32
C=CCc1ccc(OC)cc1	15.23
CC12CCC(CC1=O)C2(C)C (stereo not shown)	14.82
C=CCc1ccc(OC)c(O)c1	16.58
Cc1ccc(C(C)C)cc1O	15.87
CC1=CC(=O)C(C(C)C)=CC1=O	16.21
Cc1ccc(C(C)C)c(O)c1	15.42
CCCCCCCCCC(C)=O	15.23
COc1cc(CNC(=O)CCCC/C=C/C(C)C)ccc1O	15.42

###

# key: entry, value: Plant Height % Increase over pre on 10th Day
# Tested on: chili seedlings
# Procedure Summary: Response of chili plants, greenhouse growth (Ex. 31)
# Assay type: in vivo
# Setup Conditions: chili seedlings; dose 1 ml/gm/lit; 10th day
Measured Parameter: Plant Height % Increase over pre on 10th Day

Compound	Observed Result
Cc1ccc(C(C)C)c(O)c1	58.04%
C/C=C\c1cc(OC)c(OC)cc1OC	51.59%
O=c1oc2c(O)c(O)cc3c(=O)oc4c(O)c(O)cc1c4c23	62.60%
CC12CCC(CC1=O)C2(C)C (stereo not drawn)	56.20%
CC12CCC(CC1)C(C)(C)O2	49.60%
C=C(C)[C@H]1CC=C(C)CC1	68.16%
COc1cc(CNC(=O)CCCC/C=C/C(C)C)ccc1O	43.26%
CC(C)=CCCC(C)=CC=O	52.01%
O=C(/C=C/C=C/c1ccc2c(c1)OCO2)N1CCCCC1	54.78%
C=CCc1ccc(OC)c(O)c1	59.00%
CCCCC[C@H](O)CC(=O)CCc1ccc(O)c(OC)c1	64.20%
CCCCCCCCCCCCCCCC(=O)O	68.98%
